B1: Hairpin Ribozyme (parent)
chain: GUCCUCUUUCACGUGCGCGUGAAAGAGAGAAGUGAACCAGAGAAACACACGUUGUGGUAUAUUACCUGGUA

# Variants of: B1
# experimental.protocol: self-cleavage, relative activity (ratio to wild type); higher = more cleavage; co-transcriptional
Each entry falls into one class according to its self-cleavage; the ranges are class 0: < 0.2; class 1: ≥ 0.2 and < 0.4; class 2: ≥ 0.4

Q) Quick check: band for U52A A59G
A) class 0

Q) Next entry: C46U G54U
A) class 0

Q) Next entry: G17U G34A
A) class 2

Q) Next entry: A11U G15A
A) class 2

Q) Next entry: C16A C37G
A) class 1

Q) Next entry: C18A C46U
A) class 0

Q) Next entry: A28G G42U
A) class 1

Q) Next entry: U62C C65U
A) class 0

Q) Next entry: U5C G56U
A) class 0

Q) Next entry: A31U G40A
A) class 0

Q) Next entry: C3A U33G
A) class 0

Q) Next entry: U58A
A) class 2

Q) Next entry: A11G A24C
A) class 2

Q) Next entry: U58C
A) class 2

Q) Next entry: A22G G27A
A) class 2

Q) Next entry: G57C C66G
A) class 0

Q) Next entry: G27A U63C
A) class 1

Q) Next entry: A24C A43C
A) class 0

Q) Next entry: U8A A23G
A) class 2

Q) Next entry: A35G A49G
A) class 2

Q) Next entry: U5C A23G
A) class 2

Q) Next entry: U8G U58G
A) class 2

Q) Next entry: C6U G29C
A) class 0

Q) Next entry: U2G A23U
A) class 1

Q) Next entry: U9A G42A
A) class 0

Q) Next entry: G15A G51C
A) class 2

Q) Next entry: C10U A11C
A) class 2

Q) Next entry: U9C G13C
A) class 2

Q) Next entry: G17A U63G
A) class 1

Q) Next entry: G34C G40U
A) class 2

Q) Next entry: A28U C46A
A) class 0

Q) Next entry: G27C A45C
A) class 0

Q) Next entry: G21C A35U
A) class 2

Q) Next entry: G15A C37G
A) class 1

Q) Next entry: G1C C48U
A) class 0

Q) Next entry: A45U C50G
A) class 0

Q) Next entry: A44C C66G
A) class 0

Q) Next entry: G40U U63A
A) class 0

Q) Next entry: C18A A24U
A) class 2

Q) Next entry: G42C A43G
A) class 0

Q) Next entry: G13U U20C
A) class 2

Q) Next entry: A11C G32A
A) class 0

Q) Next entry: U20G G29A
A) class 0

Q) Next entry: U14A U20G
A) class 2

Q) Next entry: G29C U70G
A) class 0

Q) Next entry: A41U U62C
A) class 2

Q) Next entry: U60A A64G
A) class 1

Q) Next entry: G17C U33C
A) class 1

Q) Next entry: A31C G57C
A) class 0

Q) Next entry: A49U A59C
A) class 0

Q) Next entry: G21C U53C
A) class 2

Q) Next entry: A11G C46G
A) class 0

Q) Next entry: C10U U52C
A) class 2

Q) Next entry: G54C G56C
A) class 1

Q) Next entry: C46A A64G
A) class 0

Q) Next entry: G1C A31C
A) class 1

Q) Next entry: A45C A61G
A) class 0

Q) Next entry: C38A U55G
A) class 0

Q) Next entry: U7G A41U
A) class 2

Q) Next entry: G25C A30G
A) class 0

Q) Next entry: C3U A71G
A) class 2

Q) Next entry: U5C A35U
A) class 0

Q) Next entry: U5A C12A
A) class 1

Q) Next entry: G32U G68C
A) class 0

Q) Next entry: A41G
A) class 2

Q) Next entry: C3G U58G
A) class 0

Q) Next entry: G25U A31C
A) class 0

Q) Next entry: G42U G54U
A) class 0

Q) Next entry: C4U U9G
A) class 0

Q) Next entry: G42U A45G
A) class 0

Q) Next entry: U52G A59U
A) class 0

Q) Next entry: C50U C66U
A) class 0

Q) Next entry: U67G G69U
A) class 0

Q) Next entry: C12G U60C
A) class 2

Q) Next entry: A45G U55A
A) class 0

Q) Next entry: G15A A30G
A) class 0

Q) Next entry: A49U U62G
A) class 0

Q) Next entry: C16A G56U
A) class 0

Q) Next entry: C6A U70G
A) class 1

Q) Next entry: G40U C65A
A) class 0

Q) Next entry: U55C
A) class 1

Q) Next entry: A28U A41G
A) class 1

Q) Next entry: C4A A43C
A) class 0

Reference source: the RNAGym collection of RNA variant scans (doi:10.7554/elife.80360)
